# IC50 measurements, system: TGF-beta receptor type-1 (Homo sapiens, UniProt P36897)
# Sequence (P36897 whole entry): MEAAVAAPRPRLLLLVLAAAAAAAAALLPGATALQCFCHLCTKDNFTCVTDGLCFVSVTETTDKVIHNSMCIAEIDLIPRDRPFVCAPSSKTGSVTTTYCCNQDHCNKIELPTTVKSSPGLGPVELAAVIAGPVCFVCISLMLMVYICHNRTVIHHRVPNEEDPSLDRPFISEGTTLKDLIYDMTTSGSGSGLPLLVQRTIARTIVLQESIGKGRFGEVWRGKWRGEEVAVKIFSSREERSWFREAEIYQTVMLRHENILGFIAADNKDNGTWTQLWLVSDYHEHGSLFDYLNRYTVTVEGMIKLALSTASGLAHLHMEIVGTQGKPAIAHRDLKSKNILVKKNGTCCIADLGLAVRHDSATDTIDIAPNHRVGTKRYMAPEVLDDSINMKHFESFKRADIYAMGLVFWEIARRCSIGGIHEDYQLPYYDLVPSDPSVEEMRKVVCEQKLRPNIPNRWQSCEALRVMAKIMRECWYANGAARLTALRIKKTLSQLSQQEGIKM

Cc1cccc2c(Nc3ccnc(Nc4cc(F)cc(CN5CCNCC5)c4)n3)cnnc12 :: ≤ 0.01 µM
Cc1cccc2c(Nc3ccnc(Nc4ccc(N5CCNCC5)c(F)c4)n3)cnnc12 :: ≤ 0.01 µM
Cc1cc(F)cc2c(Nc3ccnc(Nc4ccc(N5CCN(C)CC5)cc4)n3)cnnc12 :: ≤ 0.01 µM
Cc1cccc2c(Nc3nc(Nc4cc(CN5CCNCC5)ccc4F)ncc3F)cnnc12 :: 0.01 µM

Query :: Record lookup: for TGF-beta receptor type-1 (Homo sapiens, UniProt P36897), what IC50 belongs to "Cc1cccc2c(Nc3ccnc(Nc4cc(CN5CCNCC5)ccc4F)n3)cnnc12" ?
Result :: ≤ 0.01 µM

Query :: Entry "Cc1cccc2c(Nc3ccnc(Nc4cccc(N5CCOCC5)c4)n3)cnnc12" please
Result :: ≤ 0.01 µM

Query :: Repeat for the following compound: "Cc1cccc2c(Nc3ccnc(Nc4ccc(N5CCOCC5)cc4)n3)cnnc12"
Result :: ≤ 0.01 µM

Query :: Moving on to "Cc1cccc2c(Nc3ccnc(Nc4cccc(CN5CCN(C)CC5)c4)n3)cnnc12"
Result :: ≤ 0.01 µM

---

- Species on record: Homo sapiens
- assay_notes: Selectivity ratio of IC50 for ALK2 (unknown origin) to IC50 for ALK5 (unknown origin)
quantity: Ratio IC50

Cc1cccc2c(Nc3ccnc(Nc4cccc(CN5CCN(C)CC5)c4)n3)cnnc12 :: > 10
Cc1cccc2c(Nc3nc(Nc4cc(CN5CCNCC5)ccc4F)ncc3F)cnnc12 :: > 10

Now take the following compound into account.
Query :: Look at this compound and give its reported Ratio IC50. "Cc1cccc2c(Nc3ccnc(Nc4cc(F)cc(CN5CCNCC5)c4)n3)cnnc12"
Result :: > 10
